assay: Toxicity liver stage against HepG2, at 10uM; format: cell-based; parameters: test concentration 10 uM, cell line HepG2-A16-CD81EGFP; settings: human, HepG2-A16-CD81EGFP cells; read-out: INHIBITION
Property Label: cytotoxicity at 10 µM (%)

                                    molecule         property_label  value_measured
 0  O=C1COc2cc(C(=O)NS(=O)(=O)c3ccc(F)cc3F)ccc2N1  cytotoxicity at 10 µM           -6.21
 1  CC(C)(C)c1cc(C(=O)NCCn2nc3ccccn3c2=O)[nH]n1  cytotoxicity at 10 µM           -29.5
 2  Cc1nc(C2CCN2c2ncccn2)cc(N(C)C)n1 (centres undefined)  cytotoxicity at 10 µM            -4.8
 3     O=C(Nc1ccccc1)C1=CC2(CCNCC2)c2ccccc21  cytotoxicity at 10 µM            1.54
 4  CNC(=O)CN1CC[C@H]2CN(C(=O)c3cccc(C)c3)C[C@H]2C1  cytotoxicity at 10 µM           -2.45
 5  CN1CCN(C(=O)C2CN(Cc3cc4ccccc4o3)CCN2)CC1 (centres undefined)  cytotoxicity at 10 µM            -8.2
 6  CN1CCCC[C@@H]2[C@H]1[C@@H](c1ccccc1)CCN2C(=O)c1ccccc1  cytotoxicity at 10 µM            -4.3
 7  CC1=Nc2c(c(=O)[nH]n2C(C)C)C(c2ccc3c(c2)n(C)c(=O)n3C)S1 (centres undefined)  cytotoxicity at 10 µM            3.75
 8  CC(C)[C@@H]1CN(Cc2cnc(C3CCCCC3)nc2)C[C@H]1C(=O)O  cytotoxicity at 10 µM           -6.46
 9   Cc1csc(C2(NCc3nc(-c4ccco4)oc3C)CCCC2)n1  cytotoxicity at 10 µM             7.2
10  O=C(CCN1CCC(C(=O)c2cc(F)ccc2F)CC1)NC1CC1  cytotoxicity at 10 µM           -7.74
11  CO[C@H]1C[C@@H](O)C12CCN(C(=O)CCSCc1ccc(F)cc1)CC2  cytotoxicity at 10 µM           -5.22
12      CS(=O)(=O)Cc1ccc(NC(=O)c2cccnc2)cc1F  cytotoxicity at 10 µM           -1.53
13  CNC(=O)C1CNCCN1C(=O)c1ccc(C(F)(F)F)nc1C (centres undefined)  cytotoxicity at 10 µM            -4.7

---

Consider the following compounds and their measured cytotoxicity at 10 µM readings.
test: Toxicity liver stage against HepG2, at 10uM; type: cell-based; parameters: test concentration 10 uM, cell line HepG2-A16-CD81EGFP; conditions: human, HepG2-A16-CD81EGFP cells; read-out: INHIBITION
Property Label: cytotoxicity at 10 µM (%)

                                    compound         property_label  u  value_measured
 0  Cc1cc(NC(=O)C(C)N2CCN(c3nc(C)cs3)CC2)on1 (stereo not drawn)  cytotoxicity at 10 µM  %           -0.71
 1  CCC(=O)N1CCC(NCc2cc(C(F)(F)F)ccc2Cl)C1 (stereo not drawn)  cytotoxicity at 10 µM  %           -4.04
 2  CC(NC1(CNS(C)(=O)=O)CCCC1)c1ccccc1 (stereo not drawn)  cytotoxicity at 10 µM  %            8.43
 3  CN(C)C(C(=O)NCC(F)(F)F)c1cccc(F)c1 (stereo not drawn)  cytotoxicity at 10 µM  %           -2.49
 4  COC(=O)Cn1c(=O)[nH]c2cn(-c3cccc(C)c3)c(=O)n21  cytotoxicity at 10 µM  %            5.42
 5  CC(C)OCCCNC(=O)C1CCC(=O)N(C2CCCC2)C1 (stereo not drawn)  cytotoxicity at 10 µM  %           -5.92
 6  CC(C)=CCN1CC2(CCN(C(=O)CCn3ccnc3C)CC2)CC1=O  cytotoxicity at 10 µM  %            -6.3
 7  COc1ccc2c(c1)nc1n2[C@@H](CN(C2CCC2)C2CCC2)COC1  cytotoxicity at 10 µM  %            5.96
 8  O=C(NCC1CCOCC1)c1cc(-c2ccc3c(c2)CCO3)n[nH]1  cytotoxicity at 10 µM  %            2.63
 9             COc1cc(C(=O)NCCc2ccccc2OC)on1  cytotoxicity at 10 µM  %           0.409
10  Cc1cc(C)n(CC2CN(CC(=O)Nc3c(C)n[nH]c3C)CCO2)n1 (stereo not drawn)  cytotoxicity at 10 µM  %           -9.86
11  CCc1nc(CN2CCN(CC(O)c3ccccc3)CC2)no1 (stereo not drawn)  cytotoxicity at 10 µM  %           -15.3
12  Cc1ccc(C(F)(F)F)cc1NC(=O)C1CCCN1 (stereo not drawn)  cytotoxicity at 10 µM  %            4.28
13  O=C(CC1NC(N2CCc3ccccc32)=NC1=O)Nc1ccccc1 (stereo not drawn)  cytotoxicity at 10 µM  %            -1.3
14  CC(C)COCC1CN(Cc2ccco2)Cc2ncn(C)c21 (stereo not drawn)  cytotoxicity at 10 µM  %            4.24
15   CCN1CCN(c2ccc(CNC(=O)c3cc(C)on3)cn2)CC1  cytotoxicity at 10 µM  %             -11
16  COc1ccc(N2CCN(C(=O)CCn3nccc3C)C(C)C2)cc1 (stereo not drawn)  cytotoxicity at 10 µM  %            14.3
17  O=C(O)c1ccc(S(=O)(=O)Nc2cnn(CC(F)(F)F)c2)cc1  cytotoxicity at 10 µM  %           -7.52
18  CC(NC(=O)NCCCc1n[nH]c(N)c1C#N)c1ccc(F)cc1 (stereo not drawn)  cytotoxicity at 10 µM  %           -13.7
19  CC(C)c1noc(CCNC(=O)N2CCSC(C(C)C)C2)n1 (stereo not drawn)  cytotoxicity at 10 µM  %           -2.65
20    N#Cc1cn(CCN2CCc3ccccc3C2)c(=O)[nH]c1=O  cytotoxicity at 10 µM  %            4.47
21  Cc1nc(C)n(CC(C)C(=O)N2CCC(CN3CCOCC3)CC2)n1 (stereo not drawn)  cytotoxicity at 10 µM  %           0.635
22  COc1ccc(CN(C)Cc2nc3c(cnn3C)c(=O)[nH]2)cc1OC  cytotoxicity at 10 µM  %           0.457
23    CC(=O)NCC1CCN(c2cc(C(C)C)nc3ccnn23)CC1  cytotoxicity at 10 µM  %            6.64
24  Cc1cc(CN(C)CCC(O)c2ccccc2)nn1C (stereo not drawn)  cytotoxicity at 10 µM  %           -17.3
25    Cc1ccc(Sc2ccc(N3CCC(C(=O)O)CC3)nn2)cc1  cytotoxicity at 10 µM  %         -0.0154
26  Cc1cnn(CC(C)NCc2csc(-c3ncccn3)n2)c1 (stereo not drawn)  cytotoxicity at 10 µM  %           -6.94
27  c1cncc(OCC2CN(Cc3ccsc3)Cc3nccn3C2)c1 (stereo not drawn)  cytotoxicity at 10 µM  %           -72.4

---

test: Toxicity liver stage against HepG2, at 10uM; type: cell-based; set-up: test concentration 10 uM, cell line HepG2-A16-CD81EGFP; settings: human, HepG2-A16-CD81EGFP cells; read-out: INHIBITION
Property Label: cytotoxicity at 10 µM (%)

                                   compound         property_label  value_measured
0  O=C(NCc1nc(C2CC2)no1)N1CCOC(c2cccc(F)c2)C1 (stereo not drawn)  cytotoxicity at 10 µM           -44.6
1  CN1CCN(C(=O)[C@@H]2CN(C)C[C@]23COc2ccc(F)cc2C3=O)CC1  cytotoxicity at 10 µM            3.06
2         CS(=O)(=O)N1CCC(Cc2cnc(Br)cn2)CC1  cytotoxicity at 10 µM            13.4

---

assay: Toxicity liver stage against HepG2, at 10uM; format: cell-based; parameters: test concentration 10 uM, cell line HepG2-A16-CD81EGFP; conditions: human, HepG2-A16-CD81EGFP cells; read-out: INHIBITION
Property Label: cytotoxicity at 10 µM (%)

>>> df
                                    compound         property_label  value_measured
 0  CCc1nnc(CN2CCC3(CCC(=O)N(C4CCCC4)C3)CC2)o1  cytotoxicity at 10 µM           -5.16
 1    CN(Cc1ccsc1)c1nc(-c2ccccn2)nc2c1CCNCC2  cytotoxicity at 10 µM           -6.18
 2  NC(=O)c1ccc(OCCCN2C[C@H](C3CC3)[C@@H](N)C2)cc1  cytotoxicity at 10 µM          -0.517
 3  COc1ccc2c(c1)CCCN(CC(=O)NCC1CCCO1)C2 (stereo not given)  cytotoxicity at 10 µM             -12
 4      CCc1ccccc1OC1CN(C(=O)c2ccnc(OC)c2)C1  cytotoxicity at 10 µM            32.8
 5  CC1(C)OCC(CNC(=O)c2cnn(-c3ccc(Cl)cc3)c2N)O1 (stereo not given)  cytotoxicity at 10 µM            2.31
 6  CC(NC(=O)N1CCN(c2cccs2)CC1)c1ccc(C#N)cc1 (stereo not given)  cytotoxicity at 10 µM            11.4
 7  CC(C)(C)n1ncc(NCC(O)c2ccccc2C(F)(F)F)c(Cl)c1=O (stereo not given)  cytotoxicity at 10 µM            53.6
 8         CC(C)(CN1CCC2(CCNCC2)CC1)N1CCOCC1  cytotoxicity at 10 µM            -148
 9        CCn1cc(-n2cc3nc(N)[nH]cc-3c2=O)cn1  cytotoxicity at 10 µM            3.15
10  CC(Nc1ccc(CN2CCCC2=O)cc1)C(=O)N(C)CCC#N (stereo not given)  cytotoxicity at 10 µM            13.7
11      Cc1ccc(CNC(=O)NCCCn2nc3ccccn3c2=O)s1  cytotoxicity at 10 µM           -2.09
12  CNc1ccnc(N2CC[C@@](O)(C3CCOCC3)[C@H](C)C2)n1  cytotoxicity at 10 µM            8.64
13  CC1(C)Cc2nc(C(C)(C)C)ncc2C(NC(=O)Cc2nnn[nH]2)C1 (stereo not given)  cytotoxicity at 10 µM           -3.67
14          CCn1c(C2CCNCC2)nn(CCn2cncn2)c1=O  cytotoxicity at 10 µM           -6.26
15      COC1CCN(C(=O)Cc2csc(-c3ncccn3)n2)CC1  cytotoxicity at 10 µM           -12.6
16  O=C(O)CCc1cc2n(n1)CCN(Cc1ccc3[nH]ccc3c1)C2  cytotoxicity at 10 µM           -2.32
17  Cc1c(-c2c(-c3ccccc3)ncn2[C@H](CO)C(=O)O)cnn1C  cytotoxicity at 10 µM            4.28
18  Cc1cnc(N2CCC3(CC2)CC3CNC(=O)C2CCC2)nc1 (stereo not given)  cytotoxicity at 10 µM              38
19    COc1ccc(NC(=O)CCSc2ccc3nncn3n2)c(OC)c1  cytotoxicity at 10 µM           -15.3

All values here come from ChEMBL document CHEMBL4513216.
